Each entry below lists one item and its recorded APOE RNA (% control) Spinal Cord value.
# Tested on: human APOE RNA
# Procedure Details: Activity in APOE C57BL/6NTac-Apoeem7250 knock-in mice, single ICV bolus, 8 weeks (Example 11)
# Assay type: in vivo
# Run Parameters: spinal cord; single ICV bolus 300 μg; 8 weeks post treatment; normalized to mouse Ppia
Strand notation (5' to 3'): a small letter for the sugar, then the base; units joined by * are phosphorothioate-linked, units joined directly phosphodiester-linked; [ ] holds rarer units or linkages, { } end groups; capitals alone tell only the bases. [ms] = mesyl phosphoramidate linkage; e = 2'-O-(2-methoxyethyl) (MOE); k = constrained ethyl (cEt); [5mC] = 5-methylcytosine; d = 2'-deoxy (DNA)
Observable: APOE RNA (% control) Spinal Cord

{"Substance": "1652912: 5-10-5 MOE gapmer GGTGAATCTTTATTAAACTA, linkages sooossssssszsszooss (antisense eG*eGeTeGeA*dA*dT*d[5mC]*dT*dT*dT*dA[ms]dT*dT*dA[ms]eAeAe[5mC]*eT*eA) [compound 1652912]", "Measured Result": 41}
{"Substance": "1693101: 6-10-4 MOE gapmer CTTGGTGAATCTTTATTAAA, linkages sssssozzzssssszssss (e[5mC]*eT*eT*eG*eG*eTdG[ms]dA[ms]dA[ms]dT*d[5mC]*dT*dT*dT*dA[ms]dT*eT*eA*eA*eA) [compound 1693101]", "Measured Result": 46}
{"Substance": "1757575 (eA*e[5mC]eTeT*kG*kG*dT*dG[ms]dA[ms]dA[ms]dT*d[5mC]*dT*dT*dT*dA[ms]kT*eT*eA*eA; antisense) [Compound 1757575]", "Measured Result": 32}
{"Substance": "1693049: 5-10-5 MOE gapmer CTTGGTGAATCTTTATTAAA, linkages ssssszzzzssssszssss (antisense e[5mC]*eT*eT*eG*eG*dT[ms]dG[ms]dA[ms]dA[ms]dT*d[5mC]*dT*dT*dT*dA[ms]eT*eT*eA*eA*eA) [compound 1693049]", "Measured Result": 96}
